This collection of values is drawn from patent US20240400638A1.

# system.tested: T1, human RXFP1 (human, UniProt Q9HBX9 1-757)
# T1 sequence (looked up): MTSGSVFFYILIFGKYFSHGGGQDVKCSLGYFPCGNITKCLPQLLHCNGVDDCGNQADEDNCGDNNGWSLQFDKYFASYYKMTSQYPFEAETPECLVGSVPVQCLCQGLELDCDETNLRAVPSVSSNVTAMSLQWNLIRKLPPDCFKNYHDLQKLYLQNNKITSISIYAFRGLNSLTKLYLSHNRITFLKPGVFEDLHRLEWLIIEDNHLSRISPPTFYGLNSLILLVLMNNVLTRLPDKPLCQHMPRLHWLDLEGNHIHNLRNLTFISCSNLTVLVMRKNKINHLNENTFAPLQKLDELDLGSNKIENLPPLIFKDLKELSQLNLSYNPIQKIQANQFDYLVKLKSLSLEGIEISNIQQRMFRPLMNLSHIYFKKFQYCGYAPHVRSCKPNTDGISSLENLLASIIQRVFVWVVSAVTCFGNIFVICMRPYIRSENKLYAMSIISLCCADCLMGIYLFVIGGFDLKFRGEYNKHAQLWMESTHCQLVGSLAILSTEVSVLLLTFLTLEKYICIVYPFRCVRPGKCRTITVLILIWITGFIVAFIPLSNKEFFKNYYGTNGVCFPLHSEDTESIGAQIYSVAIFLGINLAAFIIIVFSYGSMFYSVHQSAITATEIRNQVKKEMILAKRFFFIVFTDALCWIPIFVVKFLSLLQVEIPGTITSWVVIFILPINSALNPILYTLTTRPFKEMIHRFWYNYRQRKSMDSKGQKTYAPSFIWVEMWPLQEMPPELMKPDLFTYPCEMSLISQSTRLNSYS
# test: cell-based or functional assay
Numbered stars: 1 amine (or outer) side, 2 acyl side, 3 side chain; on linkers, the order of the positions; unused ones are H or OH. Square brackets hold non-standard residues; d marks the D form. Side chains are listed from the residue outwards. * marks the point of attachment. TTDS = 4-[3-[2-[2-(3-aminopropoxy)ethoxy]ethoxy]propylamino]-4-oxo-butanoyl; Trp(5-Cl) = N[C@@H](Cc1c[nH]c2ccc(Cl)cc12)C(=O)O; γGlu = O=C(O)[C@H](CCC(=O)[*:2])N[*:1]; Stearoyl = CCCCCCCCCCCCCCCCCC(=O)*; Palmitoyl = CCCCCCCCCCCCCCCC(=O)*; αMeK = C[C@](N)(CCCCN)C(=O)O; Aib = CC(C)(N)C(=O)O
Recorded EMax, OVCAR 5 cells (cAMP) by entry

# binder, EMax, OVCAR 5 cells (cAMP)
data = [
    ("Ac-LEGRERVRAK(Ac)I[Aib][Aib]EGK([TTDS-TTDS-TTDS-γGlu-γGlu-γGlu-Palmitoyl])ST[Trp(5-Cl)]S[Aib]RRK(Ac)-NH2 [Relaxin peptide analogue of SEQ ID NO: 80]", "93%"),
    ("Ac-LEGREKVRAK(Ac)I[Aib][Aib]EGK([TTDS-TTDS-TTDS-γGlu-γGlu-γGlu-γGlu-Stearoyl])STWS[Aib]RKK(Ac)-NH2 [Relaxin peptide analogue of SEQ ID NO: 51]", "98%"),
    ("Ac-LEGRERVRAK(Ac)I[Aib][Aib]EGK([TTDS-TTDS-TTDS-γGlu-γGlu-γGlu-Palmitoyl])STWS[Aib]RRK(Ac)-NH2 [Relaxin peptide analogue of SEQ ID NO: 31]", "94%"),
    ("Ac-LEGREKVRAQI[Aib][Aib]EGK([TTDS-TTDS-TTDS-γGlu-γGlu-γGlu-Palmitoyl])STFS[αMeK]RAK(Ac)-NH2 [Relaxin peptide analogue of SEQ ID NO: 48]", "96%"),
]
